Each record here notes measured MFI normalized to WT.
# assay-target: T1, human CD161 (human, UniProt Q12918 1-225)
# T1 construct: UniProt Q12918; also called hCD161; KLRB1
# experiment-notes: flow, Jurkat, 100 nM Ab
Form field (numeric): enter value without unit.

Worked set:
binder	assay-readout	reported-measurement
KW1.2.1 (antibody, V domains shown) VH: EVQLVESGGGLVQPGGSLRLSCAASGSTFSSYAMSWVRQAPGKGLEWVSTISGSGGSTYYADSVKGRFTISRDNSRNTLYLQMNSLRAEDTAVYYCARGGLIPSGFDYWGQGTLVTVSS VL: DIQMTQSPSSPSASVGDRVTITCRASQSISSYLNWYQQKPGKAPKLLIYAASSLLSGVPSRFSGSGSGTDFTLTISSLQPEDFATYYCQQTYSTPLTFGQGTKVEIK	MFI normalized to WT	172
KM12.2.3 (antibody, human IgG1, V domains shown) VH: EVQLVESGGGLVQPGGSLRLSCAASGFTFSSYAMSWIRQAPGKGLEWVSAISGSGGSIYYADSVKGRFTISRDNSKNTLYLQMNSLRAEDTAVYYCARGYSDSYFYGPYYTFDYWGQGTLVTVSS VL: DIQMTQSPSSLSASVGDRVTITCRASQGISSYLNWYQQKPGKAPKLLIYAASSLQSGVSSRFSGSGSGTDFTLTISSLQPEDFATYYCQQSYNTPLTFGQGTKVEIK	MFI normalized to WT	122
KW1.3.12 (antibody, human IgG1, V domains shown) VH: EVQLVESGGGLVQPGGSLRLSCAASGFTFSSYAMSWVRQAPGKGLEWVSTISGSGGSTYYADSVKGRFTISRDNSRNTLYLQMNSLRAEDTAVYYCARGGLIPSGFDYWGQGTLVTVSS VL: DIQMTQSPSSLSASVGDRVTITCRASQSISSYLNWYQQKPGKAPKLLIYAASSLLSGVPSRFSGSGSGTDFTLTISSLQPEDFATYYCQQTYSAPLTFGQGTKVEIK	MFI normalized to WT	163

Please look at the following binder next.
Summary for this binder, KW9.3.3 (antibody, V domains shown) VH: EVQLVESGGGLVQPGGSLRLSCAASGFTFSSYAMSWVRQAPGKGLEWVSAISGSGGRTYYADSVKGRFTISRDNSKNTLYLQMNSLRAEDTAMYYCARGPGYMYLYGDSFFEYWGQGTLVTVSS VL: DIQMAQSPSSLSASVGDRVTITCRASQGISSYLNWYQQKPGKAPKLLIYAASSLQSGVPSRFSGSGYGTDFTLTISSLQPEDFATYYCQQSYSTPLTFGQGTKVEIK : MFI normalized to WT is 150

Numbers sourced from patent US20210122826A1.
